Read-out: C-C motif chemokine 2 (Homo sapiens) (UniProt P13500)
Assay: BSK_KF3CT_MCP1: BioMAP Diversity Plus: KF3CT Assay for Monocyte Chemoattractant Protein 1 (MCP1/CCL2) Biomarker Activity (AID 2283073)
Conditions: primary human keratinocytes with fibroblasts; actives raise or lower the signal
Activity calls are given as the source filed them. Rule for the calls: active = hit-call score of the fitted dose curve at least 0.9, where 1 is the maximum; inactive = score below 0.9.
Outcome codes: TRUE (active), FALSE (inactive)

compound: CCCC(=O)OCC
category.label: FALSE

compound: Cc1ccc(O)cc1
category.label: FALSE

compound: CCC(C)(C)C(=O)O[C@H]1C[C@@H](C)C=C2C=C[C@H](C)[C@H](CC[C@@H]3C[C@@H](O)CC(=O)O3)[C@H]21
category.label: TRUE

compound: CNS(=O)(=O)c1cc(C(=O)N2CCC(CCN3C4CCC3CC(n3c(C)nc5ccccc53)C4)(c3cccc(F)c3)CC2)c(Cl)cc1F (stereo not given)
category.label: FALSE

compound: CC(=O)OC[C@H]1O[C@@](COC(C)=O)(O[C@H]2O[C@H](COC(C)=O)[C@@H](OC(C)=O)[C@H](OC(C)=O)[C@H]2OC(C)=O)[C@@H](OC(C)=O)[C@@H]1OC(C)=O
category.label: FALSE

Attribution: PubChem BioAssay (EPA / NIEHS)
